Below: compounds with IC50 recorded for RON (Homo sapiens, UniProt Q04912) in separate published works.

INSERT INTO results (compound, assay_readout, result) VALUES
  ('Nc1ncc(-c2cnn(C3CCNCC3)c2)cc1-c1cc2c(-c3ccc[nH]3)ccc(F)c2cn1', 'IC50', '0.1 to 1 µM');

Return IC50 (reported value) for this compound: "Nc1ncc2c(ccn2Cc2ccccc2)c1-c1cc2ccccc2o1"
> 20 µM

Return IC50 (reported value) for this compound: "CNC(=O)Cn1cc(-c2cnc(N)c(-c3nc4ccccc4s3)c2)cn1"
> 20 µM

Return IC50 (reported value) for this compound: COCCNC(=O)Nc1nc2cc(F)c(OC(C)c3c(Cl)ccc(F)c3Cl)cc2s1 (centres unmarked)
< 0.5 µM
